# Assayed system: 1-phosphatidylinositol 4,5-bisphosphate phosphodiesterase beta-3 (Homo sapiens)
# Protocol notes: phospholipase C beta3 enzyme inhibition – biochemical, fluorescence, primary screen (AID 720704)
# Applied conditions: Purified PLC-beta3, fluorogenic substrate, at 12.2 µM
Out of some 370,000 compounds screened, about 660 (0.18%) were called active. Rule as the data show it: active = inhibition above about 11%; inactive = the rest. For the sample, actives were picked, then their nearest neighbours and some compounds at random.
Please reply with one of these outcomes: active, inactive

Tell me the recorded outcome of this test for Cc1cccc([C@H]2[C@@H]3C=CC[C@@H](C)[C@@H]3C(=O)N2Cc2ccccc2)c1 .
inactive

Which outcome did this test record for the compound O=C(NCc1ccccc1)c1onc(CSc2nc3ccccc3[nH]2)c1C(=O)NCc1ccccc1 ?
inactive

Would you mind telling me which call this test gave CC(=O)C1=C(O)C(=O)N(c2ccc(Br)cc2)C1c1ccc([N+](=O)[O-])cc1 (centres undefined) ?
inactive

Dear colleague, could you share the recorded outcome for Cc1ccc(C2CC(c3cccc(NS(C)(=O)=O)c3)=NN2S(C)(=O)=O)cc1 (centres undefined) when you have a moment?
inactive

// return assay outcome for O=C(C1CCCO1)N1CCN(C(=S)Nc2cccc(Cl)c2)CC1 (centres undefined)
active

Please let me know the test result on file for CC1=C(C(=O)N2CCOCC2)CC(CC(=O)NCc2cccc3ccccc23)C(=O)N1CCC1=CCCCC1 (centres undefined) .
inactive

// param item: CC(C)c1nc2oc3c(N4CCN(C)CC4)ncnc3c2c2c1CCC2 ; yields the recorded call
inactive

Record request — test call for COc1ccc(Br)cc1CN(C)C(=O)C1CC(=O)N(C2CCCC2)C1 (centres undefined)
inactive

Short answer needed: outcome of this test for Fc1ccc(CNCc2ccc(Br)cc2)cc1 ?
inactive
